- targetUnderTest: human TYK2 (Homo sapiens)
- Construct: catalytic domain (amino acids 871-1187; catalog number 08-147)
- Sequence (P29597 871-1187): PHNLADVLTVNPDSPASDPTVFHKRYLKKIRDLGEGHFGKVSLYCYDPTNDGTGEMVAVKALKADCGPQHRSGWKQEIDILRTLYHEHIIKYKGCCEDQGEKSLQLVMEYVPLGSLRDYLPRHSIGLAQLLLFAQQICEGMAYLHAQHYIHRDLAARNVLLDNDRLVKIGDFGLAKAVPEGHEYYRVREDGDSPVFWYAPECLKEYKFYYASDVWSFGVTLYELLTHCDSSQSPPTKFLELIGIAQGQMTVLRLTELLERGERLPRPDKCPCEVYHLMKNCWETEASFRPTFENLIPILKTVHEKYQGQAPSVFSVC
- assayNotes: TYK2 inhibition assay
- conditionDetails: recombinant human TYK2 catalytic domain, polyGT substrate
pIC50: −log10 of the molar value.
experimentalEndpoint: pIC50

Example entries begin here.
compound: CCC(=O)N1CC(c2cc(CC)c(N(C)c3cc4c(cn3)ncn4C)cn2)C1
targetUnderTest: human TYK2 (Homo sapiens)
pIC50: < 6.00
--
compound: CCc1cc(C(=O)NC2(C#N)CCN(C)CC2)ccc1N(C)c1cc2c(cn1)ncn2C
targetUnderTest: human TYK2 (Homo sapiens)
pIC50: < 6.00
--
compound: CCn1nc(-c2ccc(Cl)cc2)cc1N(C)c1cc2c(cn1)ncn2C
targetUnderTest: human TYK2 (Homo sapiens)
pIC50: 6.30 to 7.00
--
compound: CCc1cc(CN(CC#N)S(C)(=O)=O)ccc1N(C)c1cc2c(cn1)ncn2C
targetUnderTest: human TYK2 (Homo sapiens)
pIC50: 7.00 to 11.00
--
compound: CCc1ccc(F)cc1N(C)c1cc2c(cn1)ncn2C
targetUnderTest: human TYK2 (Homo sapiens)
pIC50: 6.30 to 7.00
--
compound: Cc1ccc(OCC(C)C)cc1N(C)c1cc2c(cn1)ncn2C
targetUnderTest: human TYK2 (Homo sapiens)
pIC50: < 6.00

Find the measured pIC50: item CCc1cc(C(C#N)N2CCC(S(C)(=O)=O)CC2)ccc1N(C)c1cc2c(cn1)ncn2C (stereo not drawn) , target or system human TYK2 (Homo sapiens).
7.00 to 11.00

Can you check CCc1cc(C2=CCN(S(=O)(=O)CC#N)CC2)ccc1N(C)c1cc2c(cn1)ncn2C next?
7.00 to 11.00

Another compound to look at: CCc1cc(C(C#N)N2CCC[C@@H]2COC)ccc1N(C)c1cc2c(cn1)ncn2C (stereo partly drawn)
7.00 to 11.00

====

- targetUnderTest: human JAK2 (Homo sapiens, UniProt O60674)
- Construct: catalytic domain (amino acids 808-1132; catalog number PV4210); GST
- Sequence (O60674 808-1132): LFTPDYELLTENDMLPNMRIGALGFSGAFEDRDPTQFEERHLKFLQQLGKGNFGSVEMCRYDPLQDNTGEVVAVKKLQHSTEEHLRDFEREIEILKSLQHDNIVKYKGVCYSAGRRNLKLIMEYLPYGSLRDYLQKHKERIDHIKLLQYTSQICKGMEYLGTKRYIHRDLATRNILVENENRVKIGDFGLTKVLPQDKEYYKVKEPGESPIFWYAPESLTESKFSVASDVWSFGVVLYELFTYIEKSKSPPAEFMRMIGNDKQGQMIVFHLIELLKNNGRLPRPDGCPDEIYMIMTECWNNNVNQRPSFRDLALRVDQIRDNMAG
- assayNotes: JAK2 inhibition assay (polyGT substrate / Ulight-JAK1 peptide)
- conditionDetails: recombinant human JAK2 catalytic domain; polyGT or Ulight-JAK1 peptide assay
experimentalEndpoint: IC50

// solved cases for IC50 follow
molecule: CN(c1cc2c(cn1)ncn2C)c1ccc(CN(CC#N)S(C)(=O)=O)cc1F [Compound 355]
IC50: 0.01 to 100 nM

molecule: CCc1cc(C(C#N)N2CCC(CO)CC2)ccc1N(C)c1cc2c(cn1)ncn2C (stereo not shown) [Compound 437]
IC50: 0.01 to 100 nM

Kindly state the measured IC50 obtained for CCc1cc(Cn2ccnc2)ccc1N(C)c1cc2c(cn1)ncn2C [Compound 111] with human JAK2 (Homo sapiens, UniProt O60674).
101 to 500 nM

====

# Lookup of reported IC50 keyed by entry
- targetUnderTest: human TYK2 (Homo sapiens)
- Construct: catalytic domain (amino acids 871-1187; catalog number 08-147)
- assayNotes: TYK2 inhibition assay
- conditionDetails: recombinant human TYK2 catalytic domain, polyGT substrate

Solved entries:
compound: CN(c1cc2c(cn1)ncn2C)c1ccc(C#N)cc1OC(F)F
targetUnderTest: human TYK2 (Homo sapiens)
experimentalEndpoint: IC50
result: > 1000 nM
--
compound: CCc1cc(N2CCC(F)(F)C2)ncc1N(C)c1cc2c(cn1)ncn2C
targetUnderTest: human TYK2 (Homo sapiens)
experimentalEndpoint: IC50
result: 0.01 to 100 nM
--
compound: CCc1cc(N2CC(F)(F)C2)ncc1N(C)c1cc2c(cn1)ncn2C
targetUnderTest: human TYK2 (Homo sapiens)
experimentalEndpoint: IC50
result: 0.01 to 100 nM

Which measured IC50 belongs to CCc1cc(C2CN(C(=O)CC#N)C2)ncc1N(C)c1cc2c(cn1)ncn2C , tested on human TYK2 (Homo sapiens)?
> 1000 nM

Lookup CCc1cc(CC#N)ncc1N(C)c1cc2c(cn1)ncn2C
101 to 500 nM

Next record, please: CCc1cc(CN(C)S(=O)(=O)C2CC2)ccc1N(C)c1cc2c(cn1)ncn2C
101 to 500 nM

Also CCc1cc(C(C#N)N2CCC(CO)CC2)ccc1N(C)c1cc2c(cn1)ncn2C (stereo not shown) ?
0.01 to 100 nM

Again, but for Cc1ccc(OCC#N)cc1N(C)c1cc2c(cn1)ncn2C
501 to 1000 nM

Entry to check: CCc1cc(COC)ccc1N(C)c1cc2c(cn1)ncn2C
0.01 to 100 nM

Another compound: CN(c1cc2c(cn1)ncn2C)c1ccc(C2CN(S(C)(=O)=O)C2)cc1F
501 to 1000 nM

====

Entries and their measured IC50 follow.
- targetUnderTest: human JAK1 (Homo sapiens)
- Construct: catalytic domain, amino acids 866-1154; catalog number PV4774
- Sequence (P23458 866-1154): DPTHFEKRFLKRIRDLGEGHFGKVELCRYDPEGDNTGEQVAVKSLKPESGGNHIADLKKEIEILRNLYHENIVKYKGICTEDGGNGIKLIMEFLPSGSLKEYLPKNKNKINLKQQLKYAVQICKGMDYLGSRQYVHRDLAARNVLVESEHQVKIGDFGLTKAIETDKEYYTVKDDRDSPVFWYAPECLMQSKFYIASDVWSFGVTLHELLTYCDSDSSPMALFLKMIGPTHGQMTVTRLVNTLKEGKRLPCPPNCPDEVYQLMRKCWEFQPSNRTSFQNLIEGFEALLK
- assayNotes: JAK1 inhibition assay (polyGT substrate / Ulight-JAK1 peptide)
- conditionDetails: recombinant human JAK1 catalytic domain; polyGT or Ulight-JAK1 peptide assay

Given the compound CCc1cc(C2=CCN(C(=O)C(C)(C)O)CC2)ccc1N(C)c1cc2c(cn1)ncn2C [Compound 231] , what is its reported IC50?
0.01 to 100 nM

====

- targetUnderTest: human JAK3 (Homo sapiens, UniProt P52333)
- Construct: catalytic domain (amino acids 781-1124; catalog number PV3855)
- Sequence (P52333 781-1124): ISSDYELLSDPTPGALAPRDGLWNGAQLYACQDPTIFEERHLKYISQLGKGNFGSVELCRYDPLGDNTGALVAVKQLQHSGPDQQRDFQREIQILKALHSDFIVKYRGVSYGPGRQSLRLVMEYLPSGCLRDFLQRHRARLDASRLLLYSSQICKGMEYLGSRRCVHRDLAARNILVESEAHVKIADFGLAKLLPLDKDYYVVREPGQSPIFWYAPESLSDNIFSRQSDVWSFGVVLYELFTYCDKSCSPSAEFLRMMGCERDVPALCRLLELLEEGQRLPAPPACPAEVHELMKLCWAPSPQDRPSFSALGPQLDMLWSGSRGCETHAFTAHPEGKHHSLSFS
- assayNotes: JAK3 inhibition assay
- conditionDetails: recombinant human JAK3 catalytic domain; polyGT substrate
Listed here: items and their measured IC50.

// worked examples, IC50 included
compound: CCNC(=O)C1CN(c2cc(CC)c(N(C)c3cc4c(cn3)ncn4C)cn2)C1
targetUnderTest: human JAK3 (Homo sapiens, UniProt P52333)
IC50: > 1000 nM
//
compound: CCc1cc(-c2ccc(C)nc2)ccc1N(C)c1cc2c(cn1)ncn2C
targetUnderTest: human JAK3 (Homo sapiens, UniProt P52333)
IC50: > 1000 nM
//
compound: CCc1cc(CNC2CCS(=O)(=O)C2)ccc1N(C)c1cc2c(cn1)ncn2C (stereo not shown)
targetUnderTest: human JAK3 (Homo sapiens, UniProt P52333)
IC50: > 1000 nM

Name the reported IC50 value associated with the compound CCc1cc(C2CCN(C(=O)C(F)F)CC2)ccc1N(C)c1cc2c(cn1)ncn2C
0.01 to 100 nM

// next record CCc1cn(C2(CC#N)CN(C(=O)OC(C)(C)C)C2)nc1N(C)c1cc2c(cn1)ncn2C
> 1000 nM

// repeat for CCc1ccccc1N(C)c1cc2c(cn1)ncn2C and report
501 to 1000 nM

Now this one: CCc1cc(CNC(=O)NC#N)ccc1N(C)c1cc2c(cn1)ncn2C
101 to 500 nM

Okay, and CCc1cc(CNS(=O)(=O)CC#N)ccc1N(C)c1cc2c(cn1)ncn2C ?
0.01 to 100 nM

And for CCc1cc(-c2cn[nH]c2)ccc1N(C)c1cc2c(cn1)ncn2C ?
0.01 to 100 nM

====

- targetUnderTest: human JAK1 (Homo sapiens)
- Construct: catalytic domain, amino acids 866-1154; catalog number PV4774; purchased Invitrogen PV4774
- assayNotes: JAK1 inhibition assay (polyGT substrate / Ulight-JAK1 peptide)
- Format: biochemical
- conditionDetails: recombinant human JAK1 catalytic domain; polyGT or Ulight-JAK1 peptide assay
experimentalEndpoint: IC50

molecule: CCc1cc(C(=O)NCCC#N)ccc1N(C)c1cc2c(cn1)ncn2C
targetUnderTest: human JAK1 (Homo sapiens)
IC50: 0.01 to 100 nM

Look at this molecule and give its reported IC50. CCc1cc(CNC(=O)COC)ccc1N(C)c1cc2c(cn1)ncn2C
0.01 to 100 nM

Now the molecule COc1ccc(COc2cccc(N(C)c3cc4c(cn3)ncn4C)c2C)cc1
501 to 1000 nM

Cool, now CCc1cc(CN(C)S(C)(=O)=O)c(F)cc1N(C)c1cc2c(cn1)ncn2C
0.01 to 100 nM

Same again, this time with CCc1cc(N2CCC(C#N)C2)ncc1N(C)c1cc2c(cn1)ncn2C (stereo not drawn)
0.01 to 100 nM

====

- Test system: pSTAT1(2)-luciferase reporter in HeLa cells triggered with human OSM
- assayNotes: JAK-STAT signalling assay
- Format: cell-based
- conditionDetails: Homo sapiens, HeLa, HeLa cells, pSTAT1(2)-luciferase reporter, human OSM 33 ng/mL; read-out: JAK-STAT IC50
In this section, each of the compounds is paired with its reported IC50.

Some entries whose results are on file:
compound: CCc1cc(CNC(=O)C(F)F)c(F)cc1N(C)c1cc2c(cn1)ncn2C [Compound 326]
IC50: 501 to 1000 nM
//
compound: CCc1cc(C2=CCN(C(=O)C(F)F)CC2)ccc1N(C)c1cc2c(cn1)ncn2C [Compound 197]
IC50: 1 to 500 nM
//
compound: CCc1cc(C(N)=O)ccc1N(C)c1cc2c(cn1)ncn2C [Compound 137]
IC50: 501 to 1000 nM
//
compound: CCc1cc(-c2nnc(N)s2)ccc1N(C)c1cc2c(cn1)ncn2C [Compound 193]
IC50: > 1000 nM
//
compound: CCc1cc(-c2cnc(NC(C)=O)nc2)ccc1N(C)c1cc2c(cn1)ncn2C [Compound 115]
IC50: 1 to 500 nM
//
compound: CCc1cc(-c2noc(COC)n2)ccc1N(C)c1cc2c(cn1)ncn2C [Compound 157]
IC50: > 1000 nM

Reported IC50 for CCc1cc(-c2cnccc2Cl)ccc1N(C)c1cc2c(cn1)ncn2C [Compound 155] : what is it?
501 to 1000 nM

Input CCc1cc(OC)ccc1N(C)c1cc2c(cn1)ncn2C [Compound 271]
1 to 500 nM

# repeat for CCc1cc(C2=CCN(C(=O)Nc3ncns3)CC2)ccc1N(C)c1cc2c(cn1)ncn2C [Compound 257]
1 to 500 nM

Another compound: CCc1cc(-c2nc(C)no2)ccc1N(C)c1cc2c(cn1)ncn2C [Compound 178]
501 to 1000 nM

What about this compound? CCc1cc(C2=CCN(C(=O)C(O)C(F)(F)F)CC2)ccc1N(C)c1cc2c(cn1)ncn2C (centres unmarked) [Compound 230]
1 to 500 nM
